# target.of.assay: T1, human GLP-2 receptor (human, UniProt O95838 1-553)
# T1 sequence (looked up): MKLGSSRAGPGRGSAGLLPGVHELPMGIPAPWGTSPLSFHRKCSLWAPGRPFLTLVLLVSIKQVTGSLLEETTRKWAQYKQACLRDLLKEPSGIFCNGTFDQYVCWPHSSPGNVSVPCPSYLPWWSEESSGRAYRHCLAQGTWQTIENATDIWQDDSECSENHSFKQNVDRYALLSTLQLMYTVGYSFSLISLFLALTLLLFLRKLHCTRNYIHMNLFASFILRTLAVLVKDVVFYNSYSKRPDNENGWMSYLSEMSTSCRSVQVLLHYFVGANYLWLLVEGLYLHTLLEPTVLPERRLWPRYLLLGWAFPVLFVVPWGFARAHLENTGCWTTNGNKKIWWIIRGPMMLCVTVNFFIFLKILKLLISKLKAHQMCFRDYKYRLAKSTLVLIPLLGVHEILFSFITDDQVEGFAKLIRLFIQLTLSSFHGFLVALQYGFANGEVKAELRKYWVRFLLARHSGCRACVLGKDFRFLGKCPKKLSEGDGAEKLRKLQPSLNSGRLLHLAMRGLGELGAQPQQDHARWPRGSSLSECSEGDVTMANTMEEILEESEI
# test.name: cell-based or functional assay
Ends that are not written are not given here. * marks the point of attachment. Palmitoyl = CCCCCCCCCCCCCCCC(=O)*; Lauroyl = CCCCCCCCCCCC(=O)*
Each entry gets 0 if its logEC50 (cAMP) stays under -9, and 1 if its logEC50 (cAMP) is -9 or above.

* HADGTFISDYSTILDNLAARDFINWLIQTK(Lauroyl)ITK [GIP-GLP-2 co-agonist 30] | 1
* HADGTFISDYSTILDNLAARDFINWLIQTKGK(Palmitoyl)K [GIP-GLP-2 co-agonist 36] | 1
* HADGTFISDYSTILDKLAARDFINWLIQTKITK [GIP-GLP-2 co-agonist 26] | 0
* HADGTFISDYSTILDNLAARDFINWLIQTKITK (C12 acyl group on Lys 33 (K(C12/33), 'with C12 pos 33')) [GIP-GLP-2 co-agonist 32] | 1
* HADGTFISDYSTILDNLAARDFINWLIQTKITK (C16 acyl group on Lys 33 (K(c16/33), 'with C16 pos 33')) [GIP-GLP-2 co-agonist 33] | 1

Given HADGTFISDYSTIKDNLAARDFINWLIQTKITK [GIP-GLP-2 co-agonist 25] , state whether its logEC50 (cAMP) is at least -9. 1
